Each record here notes measured EC50.
tested on: SW-1736; assay: Cytotoxicity against human SW1736 cells assessed as reduction in cell viability after 96 hrs by SRB assay; format: functional, cell-based; conditions: SW-1736, 96 h
Quantity name: EC50 (µM)

1) CC(=O)OC[C@@]1(C)[C@@H]2CC[C@]3(C)[C@H](CC=C4[C@@H]5CC(C)(C)CC[C@]5(C(=O)NCCN5CCCC5)CC[C@]43C)[C@@]2(C)CC[C@@H]1OC(C)=O; 3.6
2) CC(=O)OC[C@@]1(C)[C@@H]2CC[C@]3(C)[C@H](CC=C4[C@@H]5CC(C)(C)CC[C@]5(C(=O)NCCN5CCOCC5)CC[C@]43C)[C@@]2(C)CC[C@@H]1OC(C)=O; 3.9
3) CC1(C)CC[C@]2(C(=O)NCCCCN)CC[C@]3(C)C(=CC[C@@H]4[C@@]5(C)CC[C@H](O)[C@@](C)(CO)[C@@H]5CC[C@]43C)[C@@H]2C1; 12.2
4) CC(=O)OC[C@@]1(C)[C@@H]2CC[C@]3(C)[C@H](CC=C4[C@@H]5CC(C)(C)CC[C@]5(C(=O)N5CCCC5)CC[C@]43C)[C@@]2(C)CC[C@@H]1OC(C)=O; 1.7
5) CC(=O)OC[C@@]1(C)[C@@H]2CC[C@]3(C)[C@H](CC=C4[C@@H]5CC(C)(C)CC[C@]5(C(=O)NCc5cn(Cc6ccccc6Cl)nn5)CC[C@]43C)[C@@]2(C)CC[C@@H]1OC(C)=O; 1.8
6) COC(=O)C(NC(=O)[C@]12CCC(C)(C)C[C@H]1C1=CC[C@@H]3[C@@]4(C)CC[C@H](OC(C)=O)[C@@](C)(COC(C)=O)[C@@H]4CC[C@@]3(C)[C@]1(C)CC2)c1ccccc1 (stereo not given in full); 6.3
7) CC(=O)OC[C@@]1(C)[C@@H]2CC[C@]3(C)[C@H](CC=C4[C@@H]5CC(C)(C)CC[C@]5(C(=O)N5CCNCC5)CC[C@]43C)[C@@]2(C)CC[C@@H]1OC(C)=O; 9

====

test system: SW-1736; assay: Cytotoxicity against human SW1736 cells assessed as reduction in cell viability after 96 hrs by SRB assay; type: functional, cell-based; conditions: SW-1736, 96 h
Quantity name: EC50 (µM)

1. CC1(C)CC[C@]2(C(=O)N3CCCC3)CC[C@]3(C)C(=CC[C@@H]4[C@@]5(C)CC[C@H](O)[C@@](C)(CO)[C@@H]5CC[C@]43C)[C@@H]2C1; 3.6
2. CC(=O)OC[C@@]1(C)[C@@H]2CC[C@]3(C)[C@H](CC=C4[C@@H]5CC(C)(C)CC[C@]5(C(=O)NCc5cn(Cc6ccccc6[N+](=O)[O-])nn5)CC[C@]43C)[C@@]2(C)CC[C@@H]1OC(C)=O; 3.8
3. CC(=O)OC[C@@]1(C)[C@@H]2CC[C@]3(C)[C@H](CC=C4[C@@H]5CC(C)(C)CC[C@]5(C(=O)O)CC[C@]43C)[C@@]2(C)CC[C@@H]1OC(C)=O; 17.7
4. CC1(C)CC[C@]2(C(=O)N3CCCCC3)CC[C@]3(C)C(=CC[C@@H]4[C@@]5(C)CC[C@H](O)[C@@](C)(CO)[C@@H]5CC[C@]43C)[C@@H]2C1; 19.2

====

tested on: FaDu; test: Cytotoxicity against human FADU cells assessed as reduction in cell viability after 96 hrs by SRB assay; assay type: functional, cell-based
Each record here notes measured EC50.
Quantity name: EC50 (µM)

1. CC(=O)OC[C@@]1(C)[C@@H]2CC[C@]3(C)[C@H](CC=C4[C@@H]5CC(C)(C)CC[C@]5(C(=O)NCc5cn(Cc6ccccc6Cl)nn5)CC[C@]43C)[C@@]2(C)CC[C@@H]1OC(C)=O; 2.2
2. COC(=O)C(NC(=O)[C@]12CCC(C)(C)C[C@H]1C1=CC[C@@H]3[C@@]4(C)CC[C@H](OC(C)=O)[C@@](C)(COC(C)=O)[C@@H]4CC[C@@]3(C)[C@]1(C)CC2)c1ccccc1 (stereo not given in full); 4.6
3. CC(=O)OC[C@@]1(C)[C@@H]2CC[C@]3(C)[C@H](CC=C4[C@@H]5CC(C)(C)CC[C@]5(C(=O)NCc5cn(Cc6ccccc6F)nn5)CC[C@]43C)[C@@]2(C)CC[C@@H]1OC(C)=O; 2.8

====

Each record here notes measured EC50.
test system: FaDu; experiment: Cytotoxicity against human FADU cells assessed as reduction in cell viability after 96 hrs by SRB assay; format: functional, cell-based
Quantity name: EC50

1) CC(=O)OC[C@@]1(C)[C@@H]2CC[C@]3(C)[C@H](CC=C4[C@@H]5CC(C)(C)CC[C@]5(C(=O)NCc5cn(Cc6ccccc6Br)nn5)CC[C@]43C)[C@@]2(C)CC[C@@H]1OC(C)=O; 2.5 µM
2) CC(=O)OC[C@@]1(C)[C@@H]2CC[C@]3(C)[C@H](CC=C4[C@@H]5CC(C)(C)CC[C@]5(C(=O)N5CCNCC5)CC[C@]43C)[C@@]2(C)CC[C@@H]1OC(C)=O; 5.3 µM
3) COC(=O)CNC(=O)[C@]12CCC(C)(C)C[C@H]1C1=CC[C@@H]3[C@@]4(C)CC[C@H](OC(C)=O)[C@@](C)(COC(C)=O)[C@@H]4CC[C@@]3(C)[C@]1(C)CC2; 3.1 µM
4) COC(=O)C(NC(=O)[C@]12CCC(C)(C)C[C@H]1C1=CC[C@@H]3[C@@]4(C)CC[C@H](O)[C@@](C)(CO)[C@@H]4CC[C@@]3(C)[C@]1(C)CC2)c1ccccc1 (stereo not given in full); > 30 µM
5) CC(=O)OC[C@@]1(C)[C@@H]2CC[C@]3(C)[C@H](CC=C4[C@@H]5CC(C)(C)CC[C@]5(C(=O)NCCCCN)CC[C@]43C)[C@@]2(C)CC[C@@H]1OC(C)=O; > 30 µM

====

Each record here notes measured EC50.
system: FaDu; assay: Cytotoxicity against human FADU cells assessed as reduction in cell viability after 96 hrs by SRB assay; type: functional, cell-based
Quantity name: EC50 (µM)

1. CC1(C)CC[C@]2(C(=O)N3CCCC3)CC[C@]3(C)C(=CC[C@@H]4[C@@]5(C)CC[C@H](O)[C@@](C)(CO)[C@@H]5CC[C@]43C)[C@@H]2C1; 2.8
2. CC1(C)CC[C@]2(C(=O)N3CCCCC3)CC[C@]3(C)C(=CC[C@@H]4[C@@]5(C)CC[C@H](O)[C@@](C)(CO)[C@@H]5CC[C@]43C)[C@@H]2C1; 20.8
3. CC(=O)OC[C@@]1(C)[C@@H]2CC[C@]3(C)[C@H](CC=C4[C@@H]5CC(C)(C)CC[C@]5(C(=O)NCCN5CCOCC5)CC[C@]43C)[C@@]2(C)CC[C@@H]1OC(C)=O; 3.3
4. CC(=O)OC[C@@]1(C)[C@@H]2CC[C@]3(C)[C@H](CC=C4[C@@H]5CC(C)(C)CC[C@]5(C(=O)NCCN5CCCCC5)CC[C@]43C)[C@@]2(C)CC[C@@H]1OC(C)=O; 4.3
5. CC(=O)OC[C@@]1(C)[C@@H]2CC[C@]3(C)[C@H](CC=C4[C@@H]5CC(C)(C)CC[C@]5(C(=O)N5CCCCC5)CC[C@]43C)[C@@]2(C)CC[C@@H]1OC(C)=O; 5.5

====

tested on: A2780; assay: Cytotoxicity against human A2780 cells assessed as reduction in cell viability after 96 hrs by SRB assay; type: functional, cell-based; settings: A2780, 96 h
pEC50: −log10 of the molar value.
Each record here notes measured pEC50.
Quantity name: pEC50

1) COC(=O)CNC(=O)[C@]12CCC(C)(C)C[C@H]1C1=CC[C@@H]3[C@@]4(C)CC[C@H](OC(C)=O)[C@@](C)(COC(C)=O)[C@@H]4CC[C@@]3(C)[C@]1(C)CC2; 5.77
2) CC(=O)OC[C@@]1(C)[C@@H]2CC[C@]3(C)[C@H](CC=C4[C@@H]5CC(C)(C)CC[C@]5(C(=O)N5CCCCC5)CC[C@]43C)[C@@]2(C)CC[C@@H]1OC(C)=O; 5.55
3) CC(=O)OC[C@@]1(C)[C@@H]2CC[C@]3(C)[C@H](CC=C4[C@@H]5CC(C)(C)CC[C@]5(C(=O)NCc5cn(Cc6ccccc6[N+](=O)[O-])nn5)CC[C@]43C)[C@@]2(C)CC[C@@H]1OC(C)=O; 5.80
4) CC1(C)CC[C@]2(C(=O)N3CCNCC3)CC[C@]3(C)C(=CC[C@@H]4[C@@]5(C)CC[C@H](O)[C@@](C)(CO)[C@@H]5CC[C@]43C)[C@@H]2C1; 4.71
5) CC(=O)OC[C@@]1(C)[C@@H]2CC[C@]3(C)[C@H](CC=C4[C@@H]5CC(C)(C)CC[C@]5(C(=O)N5CCNCC5)CC[C@]43C)[C@@]2(C)CC[C@@H]1OC(C)=O; 5.72
6) CC1(C)CC[C@]2(C(=O)N3CCCC3)CC[C@]3(C)C(=CC[C@@H]4[C@@]5(C)CC[C@H](O)[C@@](C)(CO)[C@@H]5CC[C@]43C)[C@@H]2C1; 5.52
7) CC1(C)CC[C@]2(C(=O)NCCCCN)CC[C@]3(C)C(=CC[C@@H]4[C@@]5(C)CC[C@H](O)[C@@](C)(CO)[C@@H]5CC[C@]43C)[C@@H]2C1; 5.01
8) CC(=O)OC[C@@]1(C)[C@@H]2CC[C@]3(C)[C@H](CC=C4[C@@H]5CC(C)(C)CC[C@]5(C(=O)NCCN5CCCC5)CC[C@]43C)[C@@]2(C)CC[C@@H]1OC(C)=O; 5.72
9) CC1(C)CC[C@]2(C(=O)N3CCCCC3)CC[C@]3(C)C(=CC[C@@H]4[C@@]5(C)CC[C@H](O)[C@@](C)(CO)[C@@H]5CC[C@]43C)[C@@H]2C1; 4.74
10) CC(=O)OC[C@@]1(C)[C@@H]2CC[C@]3(C)[C@H](CC=C4[C@@H]5CC(C)(C)CC[C@]5(C(=O)NCc5cn(Cc6ccccc6Cl)nn5)CC[C@]43C)[C@@]2(C)CC[C@@H]1OC(C)=O; 5.77
11) CC(=O)OC[C@@]1(C)[C@@H]2CC[C@]3(C)[C@H](CC=C4[C@@H]5CC(C)(C)CC[C@]5(C(=O)O)CC[C@]43C)[C@@]2(C)CC[C@@H]1OC(C)=O; 4.92
12) CC(=O)OC[C@@]1(C)[C@@H]2CC[C@]3(C)[C@H](CC=C4[C@@H]5CC(C)(C)CC[C@]5(C(=O)NCCN5CCCCC5)CC[C@]43C)[C@@]2(C)CC[C@@H]1OC(C)=O; 5.68
13) CC(=O)OC[C@@]1(C)[C@@H]2CC[C@]3(C)[C@H](CC=C4[C@@H]5CC(C)(C)CC[C@]5(C(=O)NCc5cn(Cc6ccccc6Br)nn5)CC[C@]43C)[C@@]2(C)CC[C@@H]1OC(C)=O; 5.77
14) COC(=O)C(NC(=O)[C@]12CCC(C)(C)C[C@H]1C1=CC[C@@H]3[C@@]4(C)CC[C@H](OC(C)=O)[C@@](C)(COC(C)=O)[C@@H]4CC[C@@]3(C)[C@]1(C)CC2)c1ccccc1 (some centres not stated); 5.48
15) CC(=O)OC[C@@]1(C)[C@@H]2CC[C@]3(C)[C@H](CC=C4[C@@H]5CC(C)(C)CC[C@]5(C(=O)N5CCCC5)CC[C@]43C)[C@@]2(C)CC[C@@H]1OC(C)=O; 6.40
16) CC(=O)OC[C@@]1(C)[C@@H]2CC[C@]3(C)[C@H](CC=C4[C@@H]5CC(C)(C)CC[C@]5(C(=O)NCc5cn(Cc6ccccc6F)nn5)CC[C@]43C)[C@@]2(C)CC[C@@H]1OC(C)=O; 5.89
17) CC(=O)OC[C@@]1(C)[C@@H]2CC[C@]3(C)[C@H](CC=C4[C@@H]5CC(C)(C)CC[C@]5(C(=O)NCCN5CCOCC5)CC[C@]43C)[C@@]2(C)CC[C@@H]1OC(C)=O; 5.92
18) CC(=O)OC[C@@]1(C)[C@@H]2CC[C@]3(C)[C@H](CC=C4[C@@H]5CC(C)(C)CC[C@]5(C(=O)NCCc5ccccn5)CC[C@]43C)[C@@]2(C)CC[C@@H]1OC(C)=O; 5.82
